# Measured target: T1, Recombinant human IL-18 (human, UniProt Q14116 37-193)
# T1 construct: Used unlabeled or biotinylated depending on the assay step; also called Hu IL-18; hr IL-18
# T1 sequence: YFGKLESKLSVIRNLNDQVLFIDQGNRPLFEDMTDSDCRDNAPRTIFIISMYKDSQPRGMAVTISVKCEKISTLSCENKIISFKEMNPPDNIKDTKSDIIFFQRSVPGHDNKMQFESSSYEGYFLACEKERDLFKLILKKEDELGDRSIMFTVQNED
# Experiment notes: solution equilibrium titration (SET), ECL detection
Experimental readout: Kd (pM)
Record the value in pM, omitting the unit from your answer.

Example cases with answers are listed next.
- Binder: "MOR10501 (antibody, human IgG1, lambda, L234A L235A, V domains shown, also called MOR010501) VH: EVQLQESGPGLVKPGETLSLTCTVSGGSISTGSYYWNWIRQAPGKGLEWIGEIWHSGPTFYNPSLKSRVTISVDTSKNQFSLKLSSVTAADTAVYYCARTTRYWMSHILAYGMDYWGQGTLVTVSS VL: DIVLTQPPSVSGAPGQRVTISCSGSSSNIGNHYVSWYQQLPGTAPKLLIYANTKRPSGVPDRFSGSKSGTSASLAITGLQSEDEADYYCSSYDGSQSIVFGGGTKLTVLG"
  Kd, pM: 1
- Binder: "MOR09464 (antibody, human IgG1, lambda, L234A L235A, V domains shown, also called MOR9464) VH: EVQLVQSGAEVKKPGSSVKVSCKASGGTFNSYAISWVRQAPGQGLEWMGNIIPMTGQTYYAQKFQGRVTITADESTSTAYMELSSLRSEDTAVYYCARAAYHPLVFDNWGQGTLVTVSS VL: DIVLTQPPSVSGAPGQRVTISCSGSSSNIGNHYVNWYQQLPGTAPKLLIYRNNHRPSGVPDRFSGSKSGTSASLAITGLQSEDEADYYCQSWDYSGFSTVFGGGTKLTVLG"
  Kd, pM: 3

Consider now this further binder.
Challenge: Answer with the recorded Kd for the binder listed here: MOR10497 (antibody, human IgG1, lambda, L234A L235A, V domains shown, also called MOR010497) VH: EVQLQESGPGLVKPGETLSLTCTVSGGSISTGSYYWNWIRQAPGKGLEWIGEIQSPGYTFYNPSLKSRVTISVDTSKNQFSLKLSSVTAADTAVYYCARTTRYWMSHILAYGMDYWGQGTLVTVSS VL: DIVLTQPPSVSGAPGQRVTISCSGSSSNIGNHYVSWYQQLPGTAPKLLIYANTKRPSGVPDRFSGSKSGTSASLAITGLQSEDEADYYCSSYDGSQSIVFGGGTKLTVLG
Response given: 2

Value source: patent US20140112915A1
